Data provenance is paper PMC4336329.

Molecular target: human ether-à-go-go-related gene (hERG) potassium channel (human);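 note: peak tail current of the secondary pulse compared with the same well before compound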
Sequence (Q12809 whole entry, looked up): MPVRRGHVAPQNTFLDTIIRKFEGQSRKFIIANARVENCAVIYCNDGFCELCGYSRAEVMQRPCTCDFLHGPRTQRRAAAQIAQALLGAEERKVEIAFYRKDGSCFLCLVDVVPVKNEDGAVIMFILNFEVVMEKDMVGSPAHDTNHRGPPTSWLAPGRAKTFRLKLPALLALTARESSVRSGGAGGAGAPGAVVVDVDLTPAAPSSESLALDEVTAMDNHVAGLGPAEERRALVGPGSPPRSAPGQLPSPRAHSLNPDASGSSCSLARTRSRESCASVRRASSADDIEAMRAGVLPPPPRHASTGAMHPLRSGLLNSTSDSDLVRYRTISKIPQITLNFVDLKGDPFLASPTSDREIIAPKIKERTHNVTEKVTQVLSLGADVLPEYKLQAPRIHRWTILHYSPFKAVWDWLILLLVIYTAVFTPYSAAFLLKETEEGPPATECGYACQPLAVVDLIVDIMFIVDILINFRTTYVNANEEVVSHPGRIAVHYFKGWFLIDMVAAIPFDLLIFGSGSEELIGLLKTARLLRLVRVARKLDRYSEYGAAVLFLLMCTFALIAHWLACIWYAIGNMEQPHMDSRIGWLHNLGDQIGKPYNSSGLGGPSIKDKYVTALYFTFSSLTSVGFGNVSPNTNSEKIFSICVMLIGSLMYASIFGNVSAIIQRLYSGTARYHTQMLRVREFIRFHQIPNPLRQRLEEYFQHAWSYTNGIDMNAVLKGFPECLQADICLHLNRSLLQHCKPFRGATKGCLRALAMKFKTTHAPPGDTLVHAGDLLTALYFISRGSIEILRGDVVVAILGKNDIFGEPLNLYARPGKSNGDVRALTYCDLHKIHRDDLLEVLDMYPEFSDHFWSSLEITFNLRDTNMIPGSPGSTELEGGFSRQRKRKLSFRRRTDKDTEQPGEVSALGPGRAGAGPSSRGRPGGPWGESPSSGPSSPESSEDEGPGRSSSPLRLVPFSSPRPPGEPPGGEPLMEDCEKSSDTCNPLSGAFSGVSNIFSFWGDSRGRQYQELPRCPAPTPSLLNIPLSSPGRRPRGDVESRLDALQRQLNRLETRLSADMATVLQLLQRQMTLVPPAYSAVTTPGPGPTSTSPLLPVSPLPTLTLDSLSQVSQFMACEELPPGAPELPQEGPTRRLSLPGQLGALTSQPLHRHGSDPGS
Assay: primary screen, population patch clamp on CHO cells stably expressing hERG; higher = less effect of the substance
Among all 310,000 compounds or so, about 14,000 (4.5%) showed an effect of 50% or more. The effect is printed as a negative number. The entries come from a sample that favours strong results as a whole.
assay readout: hERG current change (%, negative = inhibition) at 10uM (%)
Report only the number, with the unit % understood.

| molecule | subject of test | experimental value |
| --- | --- | --- |
| COc1ccc(OC)c(S(=O)(=O)N2CCN(Cc3ccccc3)CC2)c1 | human ether-à-go-go-related gene (hERG) potassium channel (human) | 2.05 |
| COC(=O)CNC(c1ccccc1)c1cc(Br)ccc1NC(=O)CCN1CCOCC1 (centres unmarked) | human ether-à-go-go-related gene (hERG) potassium channel (human) | -31.7 |
| COc1ccc(/C=C/C(=O)c2ccc3c4c(cccc24)CC3)cc1OC | human ether-à-go-go-related gene (hERG) potassium channel (human) | 20.8 |
| COc1cccc(NC(=O)CCNS(=O)(=O)c2ccc(Br)s2)c1 | human ether-à-go-go-related gene (hERG) potassium channel (human) | -32.6 |

Give recorded hERG current change (%, negative = inhibition) at 10uM with human ether-à-go-go-related gene (hERG) potassium channel (human) for the following molecule: COc1ccc(CN2CCN(c3ccccn3)CC2)c(OC)c1
-75.9

Give recorded hERG current change (%, negative = inhibition) at 10uM with human ether-à-go-go-related gene (hERG) potassium channel (human) for the following molecule: c1ccc(CCn2nnnc2CN2CCC(n3nnc4ccccc43)CC2)cc1
-36.4

Give recorded hERG current change (%, negative = inhibition) at 10uM with human ether-à-go-go-related gene (hERG) potassium channel (human) for the following molecule: CNC(=O)c1cc2cc(OC)ccc2oc1=N
10.4

Give recorded hERG current change (%, negative = inhibition) at 10uM with human ether-à-go-go-related gene (hERG) potassium channel (human) for the following molecule: CCN(CC)C(=O)CSc1nc2c(sc(=S)n2CC)c(=O)n1-c1ccccc1
-66.9

Give recorded hERG current change (%, negative = inhibition) at 10uM with human ether-à-go-go-related gene (hERG) potassium channel (human) for the following molecule: Cc1ccsc1C(=O)C1CCCN(Cc2cc3ccccc3o2)C1 (centres unmarked)
-23.7

Give recorded hERG current change (%, negative = inhibition) at 10uM with human ether-à-go-go-related gene (hERG) potassium channel (human) for the following molecule: CCN(CC)C(=O)CSc1nc2c(sc(=S)n2-c2ccccc2)c(=O)n1Cc1ccco1
-78.7

Give recorded hERG current change (%, negative = inhibition) at 10uM with human ether-à-go-go-related gene (hERG) potassium channel (human) for the following molecule: O=C1CCC(C(=O)N2CCCC(C(=O)c3ccc4ccccc4c3)C2)=NN1 (centres unmarked)
-8.31

Give recorded hERG current change (%, negative = inhibition) at 10uM with human ether-à-go-go-related gene (hERG) potassium channel (human) for the following molecule: NNC(=O)CNC(c1ccccc1)c1cc(Br)ccc1NC(=O)CCN1CCOCC1 (centres unmarked)
3.67

Give recorded hERG current change (%, negative = inhibition) at 10uM with human ether-à-go-go-related gene (hERG) potassium channel (human) for the following molecule: O=C(NCc1ccccc1)Nc1cccn(Cc2ccccc2Cl)c1=O
18.8

Give recorded hERG current change (%, negative = inhibition) at 10uM with human ether-à-go-go-related gene (hERG) potassium channel (human) for the following molecule: CN(C)C/C=C/C(O)(c1ccccc1)c1ccccc1
-61.5

Give recorded hERG current change (%, negative = inhibition) at 10uM with human ether-à-go-go-related gene (hERG) potassium channel (human) for the following molecule: COc1ccc(CC(C)N2CCN(Cc3ccccc3)CC2)c(OC)c1 (centres unmarked)
-75.3

Give recorded hERG current change (%, negative = inhibition) at 10uM with human ether-à-go-go-related gene (hERG) potassium channel (human) for the following molecule: COc1ccc(-c2[nH]ncc2CN2CCN(c3ccccn3)CC2)c(OC)c1
-31.5

Give recorded hERG current change (%, negative = inhibition) at 10uM with human ether-à-go-go-related gene (hERG) potassium channel (human) for the following molecule: Cc1nn(C)c(C(=O)NNC(=S)NCc2ccco2)c1Cl
7.69

Give recorded hERG current change (%, negative = inhibition) at 10uM with human ether-à-go-go-related gene (hERG) potassium channel (human) for the following molecule: COc1ccc(C(CC(=O)NCCN2CCOCC2)NS(=O)(=O)c2ccc(C)cc2)cc1 (centres unmarked)
5.28

Give recorded hERG current change (%, negative = inhibition) at 10uM with human ether-à-go-go-related gene (hERG) potassium channel (human) for the following molecule: COc1cccc(CNC(=O)CCC2CCCN(Cc3cc4ccccc4o3)C2)c1 (centres unmarked)
-75.6

Give recorded hERG current change (%, negative = inhibition) at 10uM with human ether-à-go-go-related gene (hERG) potassium channel (human) for the following molecule: Fc1ccc2c(c1)nnn2C1CCN(Cc2ccccc2)CC1
-61.4

Give recorded hERG current change (%, negative = inhibition) at 10uM with human ether-à-go-go-related gene (hERG) potassium channel (human) for the following molecule: Cc1cc(C)cc(C(=O)Nc2ccc(N3CCN(S(C)(=O)=O)CC3)cc2)c1
15.7
